tested on: MCF10A; assay: one-nucleolus phenotype percent effect (relative to siNT 0% and siNOL11 100%); higher = more cells with one nucleolus (ribosome biogenesis inhibition); settings: 20 nM; 72 h
Would you mind telling me the reported one-nucleolus phenotype percent effect of each entry?
Numbers only, in %.

Field: example entries. Status: answers known.
Look up and report measured one-nucleolus phenotype percent effect for this entry: UCGCGCCCCGGCUCCCGUUC [hsa-miR-1292-3p]
-6.7

Look up and report measured one-nucleolus phenotype percent effect for this entry: ACUGGACUUGGAGUCAGAAGG [hsa-miR-378a-3p]
2.26

Look up and report measured one-nucleolus phenotype percent effect for this entry: UCCCUGCCCCCAUACUCCCAG [hsa-miR-6752-3p]
14.5

Count: 5. Required value per item: one-nucleolus phenotype percent effect.
1. CUGACCUAUGAAUUGACAGCC [hsa-miR-192-5p]
2. AGAGGAUACCCUUUGUAUGUU [hsa-miR-1185-5p]
3. UACUAACUGCAGAUUCAAGUGA [hsa-miR-4637]
4. AGGAGCAGUGCCGGCCAAGGCGCC [hsa-miR-6081]
5. AUCCCACCACUGCCACCAU [hsa-miR-1260b]

[57.2, 2.36, -24.1, 81.7, -10.3]

Count: 2. Required value per item: one-nucleolus phenotype percent effect.
1. CCCUCUCUGGCUCCUCCCCAAA [hsa-miR-4723-3p]
2. GGGACCCAGGGAGAGACGUAAG [hsa-miR-711]

1: -23.7; 2: -15.3

* * *

system: MCF10A; test: one-nucleolus phenotype percent effect (relative to siNT 0% and siNOL11 100%); higher = more cells with one nucleolus (ribosome biogenesis inhibition); conditions: 20 nM; 72 h
Measured attribute: one-nucleolus phenotype percent effect (%)
Give bare numbers, in %.

Look up and report measured one-nucleolus phenotype percent effect for this entry: CUCCCCUCUCUUUCCUGUUCAG [hsa-miR-6826-3p]
0.6

Look up and report measured one-nucleolus phenotype percent effect for this entry: GUUCCACACUGACACUGCAGAAGU [hsa-miR-3692-3p]
-3.86

Look up and report measured one-nucleolus phenotype percent effect for this entry: CUUUUUGCGGUCUGGGCUUGC [hsa-miR-129-5p]
8.91

Look up and report measured one-nucleolus phenotype percent effect for this entry: UGGGGGAGAUGGGGGUUGA [hsa-miR-6870-5p]
15.2

Count: 5. Required value per item: one-nucleolus phenotype percent effect.
1. UUGAGGGGAGAAUGAGGUGGAGA [hsa-miR-6734-5p]
2. AAGGCCUUUCUGAACCUUCAGA [hsa-miR-3142]
3. UCUGCACUGUGAGUUGGCUGGCU [hsa-miR-4793-3p]
4. GUCCUAGGAGGCUCCUCUG [hsa-miR-5571-3p]
5. UCAUAUUGCUUCUUUCU [hsa-miR-1279]

[-5.42, 19.5, 10.7, 6.57, -26.6]

Count: 2. Required value per item: one-nucleolus phenotype percent effect.
1. GCAGGACAGGCAGAAGUGGAU [hsa-miR-4436a]
2. UCUGUGCUACUGGAUGAAGAGU [hsa-miR-7157-3p]

-24.9
-22.7

Count: 6. Required value per item: one-nucleolus phenotype percent effect.
1. CUCGAGUUGGAAGAGGCG [hsa-miR-4444]
2. UUUUCAACUCUAAUGGGAGAGA [hsa-miR-1305]
3. UGUCUUCUCUCCUCCCAAACAG [hsa-miR-6740-3p]
4. AGCCAGGCUCUGAAGGGAAAGU [hsa-miR-4755-3p]
5. UAGACCAUCUUUCUAGAGUAU [hsa-miR-6502-3p]
6. AGGUUGUCUGUGAUGAGUUCG [hsa-miR-410-5p]

1: 19.6; 2: 9.11; 3: 42.8; 4: 7.85; 5: -0.125; 6: -12.5
